Biological target: Ba/F3 EGFR Wild-type (Homo sapiens, UniProt P00533)
Sequence (P00533 whole entry, change not shown): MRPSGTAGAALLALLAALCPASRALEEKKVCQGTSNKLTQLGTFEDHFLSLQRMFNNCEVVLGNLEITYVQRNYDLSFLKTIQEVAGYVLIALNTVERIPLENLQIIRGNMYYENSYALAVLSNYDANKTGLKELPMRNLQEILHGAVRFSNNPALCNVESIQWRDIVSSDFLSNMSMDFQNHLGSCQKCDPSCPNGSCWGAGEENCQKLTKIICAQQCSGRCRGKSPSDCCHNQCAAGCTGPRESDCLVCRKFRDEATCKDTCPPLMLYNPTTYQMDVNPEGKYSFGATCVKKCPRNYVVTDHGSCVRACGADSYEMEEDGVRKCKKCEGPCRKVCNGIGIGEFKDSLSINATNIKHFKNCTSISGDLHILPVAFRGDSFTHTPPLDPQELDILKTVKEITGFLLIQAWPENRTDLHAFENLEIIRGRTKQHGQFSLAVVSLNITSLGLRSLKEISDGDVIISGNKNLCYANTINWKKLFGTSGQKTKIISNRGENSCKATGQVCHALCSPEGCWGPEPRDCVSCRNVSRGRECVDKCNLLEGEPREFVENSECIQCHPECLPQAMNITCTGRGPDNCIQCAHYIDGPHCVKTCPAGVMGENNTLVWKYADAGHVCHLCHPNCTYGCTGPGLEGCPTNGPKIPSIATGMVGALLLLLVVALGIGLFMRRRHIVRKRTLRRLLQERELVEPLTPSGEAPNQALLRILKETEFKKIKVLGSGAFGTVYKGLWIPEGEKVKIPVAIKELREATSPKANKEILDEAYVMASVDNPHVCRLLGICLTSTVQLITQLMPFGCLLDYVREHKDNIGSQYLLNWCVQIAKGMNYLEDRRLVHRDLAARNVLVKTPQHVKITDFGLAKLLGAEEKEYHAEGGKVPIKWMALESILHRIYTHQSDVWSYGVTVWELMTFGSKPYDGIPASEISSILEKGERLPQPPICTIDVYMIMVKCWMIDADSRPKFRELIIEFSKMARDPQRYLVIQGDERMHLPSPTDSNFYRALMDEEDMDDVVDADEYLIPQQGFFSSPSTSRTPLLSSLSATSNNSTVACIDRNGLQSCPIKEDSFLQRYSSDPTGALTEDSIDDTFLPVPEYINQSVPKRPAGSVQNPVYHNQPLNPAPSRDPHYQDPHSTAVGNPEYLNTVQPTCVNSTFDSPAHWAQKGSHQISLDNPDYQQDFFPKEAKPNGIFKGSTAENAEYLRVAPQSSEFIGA
Test: CellTiter-Glo cell viability, Ba/F3 EGFR wild-type cells
Assay type: cell-based, murine
Settings: 72 hours, read-out: Ba/F3 EGFR mutant cell (IC50, nM) WT
Measured GI50 accompanies every entry in the list below.
Give just the number in nM; leave the unit off.

Answered examples (4):
COc1ccc(Nc2nc(Nc3cc(C)c(N4CCC(N5CCCC5)CC4)cc3OC)ncc2Cl)c(NS(C)(=O)=O)c1 :: 458
COc1cc(C2CCN(C(C)=O)CC2)ccc1Nc1ncc(Cl)c(Nc2ccc3nccnc3c2NS(C)(=O)=O)n1 :: 729
CCc1cc(Nc2ncc(Cl)c(Nc3ccc4nccnc4c3N(C)S(C)(=O)=O)n2)c(OC)cc1N1CC2(C1)CN(C(C)C)C2 :: 359
COc1cc(N2CCC(N3CCCC3)CC2)c(C)cc1Nc1ncc(Cl)c(Nc2cccc(OC)c2NS(C)(=O)=O)n1 :: 404

Could you now look at the following compound, please?
Request: Please give measured GI50 of the following entry: CCc1cc(Nc2ncc(Br)c(Nc3ccc4nccnc4c3N(C)S(C)(=O)=O)n2)c(OC)cc1N1CCC(N2CCN(C)CC2)CC1
Response: 400
